Tested on: 485368-065-R4-J2-PDC spheroids with HUVEC/MSC, viability;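 note: spheroids exposed to compounds for seven days; 100% = DMSO vehicle control wells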
Measurement notes: Anticancer human tumor 485368-065-R4-J2-PDC patient-derived pancreatic carcinoma cell line growth inhibition [CLK]
Experimental parameters: second compound 0.0316 µM; first compound 3.16 µM; stronger effect = lower value
Excerpt: A high-throughput screen of multi-cell type tumor spheroids was designed to identify active combinations of […] and targeted small molecules. Complex spheroids include a stromal component modeled by human endothelial cells (HUVEC) and fibroblasts modeled by human mesenchymal stem cells (MSCs). […] Compounds. […] If the clinical Cmax for an agent had not been determined, the highest concentration tested was 10 microM. […]
Recorded viability, T/C by entry

{"columns": ["Compound", "Value unit", "viability, T/C"],
 "data": [
  ["CC(Nc1ccc2c(c1)OCCn1cc(N3C(=O)OCC3C(F)F)nc1-2)C(N)=O (stereo not given) + CNC(=O)c1ccc(Nc2nc(OC3CCCC3)c3c(-c4ccc5nc(C)oc5c4)c[nH]c3n2)c(OC)c1", "%", 90.4],
  ["COC1C=CCC(C)C(C)S(=O)(=O)NC(=O)c2ccc3c(c2)N(CC2CCC21)CC1(CCCc2cc(Cl)ccc21)CO3 (stereo not given) + CN1CCN(c2cc(C(=O)Nc3cc4cc(-c5cnn(C)c5)ccc4cn3)ccn2)CC1", "%", 104],
  ["O=C(c1cc(Cc2n[nH]c(=O)c3ccccc23)ccc1F)N1CCN(C(=O)C2CC2)CC1 + CNC(=O)c1ccc(Nc2nc(OC3CCCC3)c3c(-c4ccc5nc(C)oc5c4)c[nH]c3n2)c(OC)c1", "%", 106],
  ["Nc1ccn(C2OC(CO)C(O)C2(F)F)c(=O)n1 (stereo not given) + CN1CCN(c2cc(C(=O)Nc3cc4cc(-c5cnn(C)c5)ccc4cn3)ccn2)CC1", "%", 25.3],
  ["COc1cccc2c1C(=O)c1c(O)c3c(c(O)c1C2=O)CC(O)(C(=O)CO)CC3OC1CC(N)C(O)C(C)O1 (stereo not given) + CN1CCN(c2cc(C(=O)Nc3cc4cc(-c5cnn(C)c5)ccc4cn3)ccn2)CC1", "%", 6.06],
  ["O=c1[nH]cc(F)c(=O)[nH]1 + CNC(=O)c1ccc(Nc2nc(OC3CCCC3)c3c(-c4ccc5nc(C)oc5c4)c[nH]c3n2)c(OC)c1", "%", 95.1],
  ["CC(=O)O[C@H]1C(=O)[C@@]2(C)[C@H]([C@H](OC(=O)c3ccccc3)[C@]3(O)C[C@H](OC(=O)[C@H](O)[C@@H](NC(=O)c4ccccc4)c4ccccc4)C(C)=C1C3(C)C)[C@]1(OC(C)=O)CO[C@@H]1C[C@@H]2O + CNC(=O)c1ccc(Nc2nc(OC3CCCC3)c3c(-c4ccc5nc(C)oc5c4)c[nH]c3n2)c(OC)c1", "%", 56.5],
  ["CC(CO)NC(=O)c1cc(-c2ccc(Cl)cc2)nn(-c2cnn(C)c2)c1=O (stereo not given) + CN1CCN(c2cc(C(=O)Nc3cc4cc(-c5cnn(C)c5)ccc4cn3)ccn2)CC1", "%", 104],
  ["C#Cc1c(F)ccc2cc(O)cc(-c3ncc4c(N5CC6CCC(C5)N6)nc(OCC56CCCN5CC(F)C6)nc4c3F)c12 (stereo not given) + CN1CCN(c2cc(C(=O)Nc3cc4cc(-c5cnn(C)c5)ccc4cn3)ccn2)CC1", "%", 107],
  ["CC1(C)CCC(CN2CCN(c3ccc(C(=O)NS(=O)(=O)c4ccc(NCC5CCOCC5)c([N+](=O)[O-])c4)c(Oc4cnc5[nH]ccc5c4)c3)CC2)=C(c2ccc(Cl)cc2)C1 + CN1CCN(c2cc(C(=O)Nc3cc4cc(-c5cnn(C)c5)ccc4cn3)ccn2)CC1", "%", 122]
]}
